# Experimental Details: Ratio of brain to plasma levels was determined upon administration at 20 mpk intraperitoneally after 2 h
# Format: ADME
# Condition: rat, brain and plasma, ip, 20 mg/kg
Measure: Kp at 2 h

The cases that follow already have their Kp at 2 h on record.
>>> number("Cc1c(OCc2cccc(CSc3ccncc3)c2)ccc(C(=O)CC(C)C)c1O")
1.2
>>> number("Cc1c(OCCCCSc2ccncc2)ccc(C(=O)CC(C)C)c1O")
1.1
>>> number("Cc1c(OCCCCOc2ccc(-c3nn[nH]n3)cc2)ccc(C(=O)CC(C)C)c1O")
0.03
>>> number("COc1ccccc1Oc1ccc(N(Cc2cccnc2)S(=O)(=O)CC(F)(F)F)cc1")
0.15

[A] Cc1c(OCc2ccc(Sc3ccncc3)cc2)ccc(C(=O)CC(C)(C)C)c1O
[B] CCCc1c(OCCCCOc2ccc(-c3nnn[nH]3)cc2)ccc(C(C)=O)c1O
Recorded Kp at 2 h values differ for A and B ; which one is higher? Kindly state the label of the option you pick.
A
(A: 0.21, B: 0.01)

====

# Experimental System: Metabotropic glutamate receptor 2 (Homo sapiens, UniProt Q14416)
# Sequence (Q14416 19-872 limits assumed): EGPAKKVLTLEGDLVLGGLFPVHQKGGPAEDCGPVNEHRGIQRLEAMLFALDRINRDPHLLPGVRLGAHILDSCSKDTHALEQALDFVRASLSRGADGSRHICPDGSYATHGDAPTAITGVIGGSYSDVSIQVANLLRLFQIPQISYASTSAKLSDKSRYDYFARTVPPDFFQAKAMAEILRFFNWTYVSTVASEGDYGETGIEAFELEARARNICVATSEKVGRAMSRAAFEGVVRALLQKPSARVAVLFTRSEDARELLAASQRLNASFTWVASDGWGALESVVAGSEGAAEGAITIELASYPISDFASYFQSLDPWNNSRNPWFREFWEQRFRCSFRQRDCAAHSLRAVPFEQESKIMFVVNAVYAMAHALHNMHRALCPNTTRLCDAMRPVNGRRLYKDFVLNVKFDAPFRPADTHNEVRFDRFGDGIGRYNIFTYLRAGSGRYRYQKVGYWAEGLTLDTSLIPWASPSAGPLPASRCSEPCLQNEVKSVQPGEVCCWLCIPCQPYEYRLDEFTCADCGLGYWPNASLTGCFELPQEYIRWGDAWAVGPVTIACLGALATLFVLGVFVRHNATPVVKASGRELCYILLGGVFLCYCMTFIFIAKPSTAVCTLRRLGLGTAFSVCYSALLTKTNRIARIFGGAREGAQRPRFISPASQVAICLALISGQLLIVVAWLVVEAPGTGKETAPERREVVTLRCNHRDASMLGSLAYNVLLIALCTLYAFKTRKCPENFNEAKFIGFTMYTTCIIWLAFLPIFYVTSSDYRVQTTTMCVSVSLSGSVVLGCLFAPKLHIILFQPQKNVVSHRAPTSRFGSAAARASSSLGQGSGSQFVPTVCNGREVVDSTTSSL
# Experimental Details: Potentiation as percent of maximum glutamate response at 1 mM
Measure: Potentiation (%)

>>> number("Cc1c(OCCCCOc2ccc(-n3cncn3)cc2)ccc(C(=O)CC(C)C)c1O")
18
>>> number("Cc1c(OCc2cccc(CSc3ccncc3)c2)ccc(C(=O)CC(C)C)c1O")
68
>>> number("CC(C)CC(=O)c1ccc(OCCCCSc2ccncc2)c(Br)c1O")
82

[I] Cc1c(OCCCCOc2ccccc2F)ccc(C(=O)CC(C)C)c1O
[II] CC(C)CC(=O)c1ccc(OCCCCOc2ccccc2)c(Br)c1O
Dear colleague, could you let me know whether I or II has the lower recorded Potentiation? Thanks. Select an item and report its label.
I

====

# Experimental System: Metabotropic glutamate receptor 2 (Homo sapiens)
# Experimental Details: Potentiation as percent of maximum glutamate response at 1 mM
Measure: Potentiation (%)

>>> number("Cc1c(OCCCCSc2ccccn2)ccc(C(=O)CC(C)C)c1O")
21

[A] CC(C)CC(=O)c1ccc(OCCCCOc2cccc(F)c2F)c(Br)c1O
[B] Cc1c(OCc2ccc(Sc3ccncc3)cc2)ccc(C(=O)CC(C)C)c1O
// compare measured Potentiation between A and B ; output the lower one Refer to your chosen item by its label in the answer.
B

[P] Cc1c(OCCCCOc2cccc(F)c2F)ccc(C(=O)CC(C)C)c1O
[Q] Cc1c(OCc2ccccc2Sc2ccncc2)ccc(C(=O)CC(C)C)c1O
// pick larger Potentiation from pair: P vs Q // return label of chosen record
Q

====

# Experimental Details: Total clearance in rat plasma upon administration at 2 mpk iv or 10 mpk po
# Type: ADME, organism-based
# Condition: 2 mg/kg
Measure: clearance (mL/min/kg)

Illustrative cases are given below, each with its answer.
>>> number("Cc1c(OCCCCOc2ccc(-c3nn[nH]n3)cc2)ccc(C(=O)CC(C)C)c1O")
15
>>> number("CC(C)CC(=O)c1ccc(OCCCCOc2cccc(F)c2F)c(Br)c1O")
75
>>> number("CCCc1c(OCCCCOc2ccc(-c3nnn[nH]3)cc2)ccc(C(C)=O)c1O")
33

[A] COc1ccccc1Oc1ccc(N(Cc2cccnc2)S(=O)(=O)CC(F)(F)F)cc1
[B] Cc1c(OCCCCSc2ccncc2)ccc(C(=O)CC(C)C)c1O
Kindly identify the item with the lower clearance figure among these two: A and B Identify your pick by its label.
B
(B: 33 mL/min/kg, A: 70 mL/min/kg)
